Measurement target: human EHMT2 913-1193 (Homo sapiens, UniProt Q96KQ7)
Construct: recombinant purified human EHMT2 913-1193, Viva; purchased Viva
Sequence (Q96KQ7 913-1193): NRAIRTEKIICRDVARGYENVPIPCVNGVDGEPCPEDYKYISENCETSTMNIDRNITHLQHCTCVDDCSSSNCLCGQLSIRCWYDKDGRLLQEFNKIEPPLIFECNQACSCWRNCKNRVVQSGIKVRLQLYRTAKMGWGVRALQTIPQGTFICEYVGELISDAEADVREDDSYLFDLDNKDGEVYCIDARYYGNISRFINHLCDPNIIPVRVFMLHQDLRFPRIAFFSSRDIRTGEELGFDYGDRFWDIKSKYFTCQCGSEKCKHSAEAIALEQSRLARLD
Protocol description: EHMT2 enzyme assay on histone peptide substrate (EHMT2 PEP)
Assay type: biochemical
Measurement parameters: Table II; read-out: EHMT2 PEP (IC50 μM)
Procedure: Recombinant purified human EHMT2 913-1193 (55 μM) synthesized by Viva was used for all experiments. Biotinylated histone peptides were synthesized by Biopeptide and HPLC-purified to >95% purity. […] 384-well Flashplates and 96-well filter binding plates were read on a TopCount microplate reader (PerkinElmer). […]
Attribute measured: IC50

If you can, please state the reported IC50 value of COc1ccc(Nc2cncc(NCC3CCN(C(C)=O)CC3)c2)cc1OCCCN1CCCC1 .
> 10 µM

If you can, please state the reported IC50 value of CCCCNc1nccc(C(=O)NC2CCOCC2)n1 .
> 10 µM

If you can, please state the reported IC50 value of CC(=O)N1CCC(CNc2ccnc(Nc3ccc(Cl)c(OCCCN4CCCC4)c3)n2)CC1 .
0.1 to 1 µM

If you can, please state the reported IC50 value of COc1ccc(Nc2nccc(NC(C)C)n2)cc1OCCCN1CCCC1 .
< 0.1 µM

If you can, please state the reported IC50 value of COc1ccc(Nc2ccc3ncn(C)c3n2)cc1OCCCN1CCCC1 .
> 10 µM

If you can, please state the reported IC50 value of CNc1cc(Nc2ccc(OC)c(OCCCN3CCCC3)c2)ccn1 .
0.1 to 1 µM

If you can, please state the reported IC50 value of COc1ccc(Nc2nccc(-c3c(C)noc3C)n2)cc1OCCCN1CCCC1 .
> 10 µM

If you can, please state the reported IC50 value of COc1ccc(Nc2nccc(NCC3CCN(C(C)=O)CC3)n2)cc1OCCCN1CC[C@H](F)C1 .
1 to 10 µM

If you can, please state the reported IC50 value of COc1ccc(Nc2nccc(NCC(=O)N(C)c3ccccc3)n2)cc1OCCCN1CCCC1 .
1 to 10 µM

If you can, please state the reported IC50 value of COc1ccc(Nc2nccc(CNC(C)=O)n2)cc1OCCCN1CCCC1 .
> 10 µM

If you can, please state the reported IC50 value of COc1ccc(Nc2nccc(NC3CN(C(C)=O)C3)n2)cc1OCCCN1CCCC1 .
0.1 to 1 µM

If you can, please state the reported IC50 value of COc1ccc(Nc2nccc(NCC3CCN(C)CC3)n2)cc1OCCCN1CCCC1 .
< 0.1 µM

If you can, please state the reported IC50 value of CC(=O)N1CCC(CNc2ccnc(Nc3ccc(C)c(OCCCN4CCCC4)c3)n2)CC1 .
1 to 10 µM

If you can, please state the reported IC50 value of COc1ccc(Nc2nccc(N(C)CCO)n2)cc1OCCCN1CCCC1 .
0.1 to 1 µM

If you can, please state the reported IC50 value of COc1ccc(Nc2nccc(NCc3nc4ccccc4[nH]3)n2)cc1OCCCN1CCCC1 .
0.1 to 1 µM

If you can, please state the reported IC50 value of COc1ccc(Nc2nccc(CNC3CCNCC3)n2)cc1OCCCN1CCCC1 .
> 10 µM

If you can, please state the reported IC50 value of CNc1ncc(C(F)(F)F)c(Nc2ccc(OC)c(OCCCN3CCCC3)c2)n1 .
> 10 µM

If you can, please state the reported IC50 value of COc1ccc(Nc2nccc(NCc3cnn(C)c3)n2)cc1OCCCN1CCCC1 .
< 0.1 µM

* * *

Measurement target: EHMT1 (Homo sapiens)
Sequence (Q9H9B1 whole entry, species assumed): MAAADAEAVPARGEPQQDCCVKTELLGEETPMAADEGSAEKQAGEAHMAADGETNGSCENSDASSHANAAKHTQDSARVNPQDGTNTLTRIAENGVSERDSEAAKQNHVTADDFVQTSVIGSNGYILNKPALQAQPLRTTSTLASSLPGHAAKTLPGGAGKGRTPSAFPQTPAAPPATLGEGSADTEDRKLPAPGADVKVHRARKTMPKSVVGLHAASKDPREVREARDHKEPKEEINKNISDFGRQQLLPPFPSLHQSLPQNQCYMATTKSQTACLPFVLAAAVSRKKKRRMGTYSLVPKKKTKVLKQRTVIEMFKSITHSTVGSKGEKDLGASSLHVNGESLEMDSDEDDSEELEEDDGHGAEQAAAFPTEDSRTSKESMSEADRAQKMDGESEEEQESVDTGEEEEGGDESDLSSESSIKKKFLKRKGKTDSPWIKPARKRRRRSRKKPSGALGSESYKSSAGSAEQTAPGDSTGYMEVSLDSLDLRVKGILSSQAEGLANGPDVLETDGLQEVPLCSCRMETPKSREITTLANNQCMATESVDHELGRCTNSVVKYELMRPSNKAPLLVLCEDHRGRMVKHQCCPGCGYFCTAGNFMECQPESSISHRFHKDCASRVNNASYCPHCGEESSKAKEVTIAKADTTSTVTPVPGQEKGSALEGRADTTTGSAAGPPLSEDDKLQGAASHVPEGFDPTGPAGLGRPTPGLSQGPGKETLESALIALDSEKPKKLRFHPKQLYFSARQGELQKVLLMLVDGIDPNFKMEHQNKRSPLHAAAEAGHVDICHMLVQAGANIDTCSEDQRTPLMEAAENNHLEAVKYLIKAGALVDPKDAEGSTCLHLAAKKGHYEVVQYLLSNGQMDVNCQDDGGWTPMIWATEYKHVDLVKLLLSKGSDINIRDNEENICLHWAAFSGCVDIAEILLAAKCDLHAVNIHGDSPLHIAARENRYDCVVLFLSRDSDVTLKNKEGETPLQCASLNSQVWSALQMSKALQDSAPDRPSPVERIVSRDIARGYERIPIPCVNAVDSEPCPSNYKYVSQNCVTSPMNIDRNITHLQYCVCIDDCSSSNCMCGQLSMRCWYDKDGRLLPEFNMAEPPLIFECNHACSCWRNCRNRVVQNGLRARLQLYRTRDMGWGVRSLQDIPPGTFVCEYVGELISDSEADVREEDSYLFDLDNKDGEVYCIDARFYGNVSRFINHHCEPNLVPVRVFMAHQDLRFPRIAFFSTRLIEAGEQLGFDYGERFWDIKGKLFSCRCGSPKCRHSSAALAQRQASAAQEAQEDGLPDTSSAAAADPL
Protocol description: EHMT1 enzyme assay on peptide substrate (EHMT1 PEP)
Type: biochemical
Measurement parameters: Table VI; read-out: EHMT1 PEP IC50
Kindly supply the reported IC50 values for the records listed here.

If you can, please state the reported IC50 value of COc1ccc(Nc2nn(C)c3cnccc23)cc1OCCCN1CCCC1 [Compound 794] .
> 10000 nM

If you can, please state the reported IC50 value of COc1ccc(Nc2nc(C)cc(NC3CCCOC3)n2)cc1OCCCN1CCCC1 (stereo not drawn) [Compound 788] .
< 100 nM

If you can, please state the reported IC50 value of COc1cc2c(C3CCN([C@H]4CCOC4)CC3)cc(C)nc2cc1OCCCN1CCCC1 [Compound 864] .
< 100 nM

If you can, please state the reported IC50 value of CNc1cc(C(C)C)c2cc(OC)c(OCCCN3CCCC3)cc2n1 [Compound 817] .
< 100 nM

If you can, please state the reported IC50 value of COc1cc(N(C)C2CCN(C)CC2)ncc1OCC1CCNC1 (stereo not drawn) [Compound 1042] .
1000 to 10000 nM

If you can, please state the reported IC50 value of CNc1cc(C)nc(Nc2ccc(OC)c(OC[C@H]3CCN(C(C)(C)C)C3)c2)n1 [Compound 610] .
> 10000 nM

If you can, please state the reported IC50 value of CN1CCC(Nc2ncc(OCC3CCN(C)C3)cn2)CC1 (stereo not drawn) [Compound 632] .
> 10000 nM

If you can, please state the reported IC50 value of COc1cc(Nc2ccc3[nH]ncc3n2)ncc1OCCCN1CCCC1 [Compound 648] .
1000 to 10000 nM

If you can, please state the reported IC50 value of CNc1nc(C2CN(C)C2)c2cc(OC)c(OCCCN3CCCC3)cc2n1 [Compound 753] .
< 100 nM

* * *

Measurement target: human EHMT2 913-1193 (Homo sapiens, UniProt Q96KQ7)
Construct: recombinant purified human EHMT2 913-1193, Viva; purchased Viva
Protocol description: EHMT2 enzyme assay on histone peptide substrate (EHMT2 PEP)
Assay type: biochemical
Measurement parameters: Table VI; read-out: EHMT2 PEP IC50
pIC50: −log10 of the molar value.
Kindly supply the reported pIC50 values for the records listed here.

If you can, please state the reported pIC50 value of CNc1cc(C)nc(Nc2cc(OC[C@H](O)CN3CCCC3)c(OC)cn2)n1 .
5.00 to 6.00

If you can, please state the reported pIC50 value of CCN1CC[C@@H](COc2cc3nc(C)nc(C4CCN(C)CC4)c3cc2OC)C1 .
6.00 to 7.00

If you can, please state the reported pIC50 value of COc1ccc(Nc2nc(C)cc(NC3CCCN(C)C3)n2)cc1OCCCN1CCCC1 (stereo not drawn) .
> 7.00

If you can, please state the reported pIC50 value of CNc1cc(C)nc(Nc2ccc(OC)c(OCCCc3nc(Cl)cn3C)c2)n1 .
< 5.00

If you can, please state the reported pIC50 value of COc1cc2c(C)nc(N3CCCCC3)nc2cc1OCCCN1CCCC1 .
< 5.00

If you can, please state the reported pIC50 value of CCN1CC(COc2cc3nc(C)cc(C4CCN(C)CC4)c3cc2OC)C1 .
> 7.00

If you can, please state the reported pIC50 value of CNc1nc2cc(OCCCN3CCCC3)c(OC)cc2cc1Cl .
5.00 to 6.00

If you can, please state the reported pIC50 value of CNCCNCc1cc(Nc2nccc(NC)n2)ccc1OC .
6.00 to 7.00

If you can, please state the reported pIC50 value of CCN1CC(COc2cc(Nc3nc(C)cc4[nH]ncc34)ncc2OC)C1 .
6.00 to 7.00

* * *

Measurement target: EHMT1 (Homo sapiens)
Protocol description: EHMT1 enzyme assay on peptide substrate (EHMT1 PEP)
Type: biochemical
Measurement parameters: Table II; read-out: EHMT1 PEP (IC50 μM)
Kindly supply the reported IC50 values for the records listed here.

// map COc1cnc(Nc2ccnc(CNC3CCOCC3)c2)cc1OCCCN1CCCC1 to recorded IC50 (system: EHMT1 (Homo sapiens))
1 to 10 µM

// map COc1ccc(Nc2nccc(N3Cc4cn[nH]c4C3)n2)cc1OCCCN1CCCC1 to recorded IC50 (system: EHMT1 (Homo sapiens))
1 to 10 µM

// map CCCCNc1nc(NCC2CCNCC2)ncc1C#N to recorded IC50 (system: EHMT1 (Homo sapiens))
> 10 µM

// map COc1ccc(Nc2ncc(N)cn2)cc1OCCCN1CCCC1 to recorded IC50 (system: EHMT1 (Homo sapiens))
> 10 µM

// map COc1ccc(Nc2nccc(N3CCc4cn[nH]c4C3)n2)cc1OCCCN1CCCC1 to recorded IC50 (system: EHMT1 (Homo sapiens))
> 10 µM

// map COc1ccc(Nc2nccc(-c3c(C)noc3C)n2)cc1OCCCN1CCCC1 to recorded IC50 (system: EHMT1 (Homo sapiens))
> 10 µM

// map CNc1cc(C)nc(Nc2ccc(OC)c(OCCCN3CC[C@@H](F)C3)c2)n1 to recorded IC50 (system: EHMT1 (Homo sapiens))
0.1 to 1 µM

// map CC(=O)N1CCC(CNc2ccnc(Nc3cccc(NC(=O)c4cc(C5CC5)on4)c3)n2)CC1 to recorded IC50 (system: EHMT1 (Homo sapiens))
> 10 µM

// map CNC(=O)c1cnc(Nc2ccc(OC)c(OCCCN3CCCC3)c2)nc1 to recorded IC50 (system: EHMT1 (Homo sapiens))
> 10 µM
